- System: NCI-H23 complex spheroids with HUVEC/MSC, viability
- Test Description: Anticancer human tumor NCI-H23 cell line growth inhibition [RAS]; active = viability on the fitted dose curve at most 10% of control; inactive = the rest;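 also: spheroids exposed to compound for 7 days; 100% = DMSO vehicle control viability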
- Cond: second compound 0.000949 µM; first compound 1 µM
Classes used: T for active, F for inactive

{"Molecule": "O=C(c1ccc(F)c(F)c1Nc1ccc(I)cc1F)N1CC(O)([C@@H]2CCCCN2)C1 + CCn1c(-c2cc(N3CCN(C)CC3)cnc2C(C)OC)c2c3cc(ccc31)-c1csc(n1)CC(NC(=O)C1CC1C)C(=O)N1CCCC(N1)C(=O)OCC(C)(C)C2", "Assayed Target": "NCI-H23 complex spheroids with HUVEC/MSC, viability", "Class Name": "T"}
{"Molecule": "Nc1ccn(C2OC(CO)C(O)C2(F)F)c(=O)n1 (centres undefined) + CCn1c(-c2cccnc2C(C)OC)c2c3cc(ccc31)N1CCOC(CC(NC(=O)C(C(C)C)N(C)C(=O)C3(F)CCN(C(=O)C#CC(C)(C)N(C)C)CC3)C(=O)N3CCCC(N3)C(=O)OCC(C)(C)C2)C1", "Assayed Target": "NCI-H23 complex spheroids with HUVEC/MSC, viability", "Class Name": "T"}
{"Molecule": "C=CC(=O)Nc1cc(Nc2nccc(-c3cn(C)c4ccccc34)n2)c(OC)cc1N(C)CCN(C)C + CCn1c(-c2cccnc2C(C)OC)c2c3cc(ccc31)N1CCOC(CC(NC(=O)C(C(C)C)N(C)C(=O)C3(F)CCN(C(=O)C#CC(C)(C)N(C)C)CC3)C(=O)N3CCCC(N3)C(=O)OCC(C)(C)C2)C1", "Assayed Target": "NCI-H23 complex spheroids with HUVEC/MSC, viability", "Class Name": "F"}
{"Molecule": "CC(=O)OC12COC1CC(O)C1(C)C(=O)C(O)C3=C(C)C(OC(=O)C(O)C(NC(=O)OC(C)(C)C)c4ccccc4)CC(O)(C(OC(=O)c4ccccc4)C21)C3(C)C (centres undefined) + CCn1c(-c2cc(N3CCN(C)CC3)cnc2C(C)OC)c2c3cc(ccc31)-c1csc(n1)CC(NC(=O)C1CC1C)C(=O)N1CCCC(N1)C(=O)OCC(C)(C)C2", "Assayed Target": "NCI-H23 complex spheroids with HUVEC/MSC, viability", "Class Name": "F"}

---

Entries and their viability, T/C values follow.
- Tested on: NCI-H23 complex spheroids with HUVEC/MSC, viability
- Test Description: Anticancer human tumor NCI-H23 cell line growth inhibition [RAS];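 also: spheroids exposed to compound for 7 days; 100% = DMSO vehicle control viability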
- Cond: second compound 0.1 µM; first compound 10 µM; hits give low values

{"Molecule": "CC(C)NCC(C(=O)N1CCN(c2ncnc3c2C(C)CC3O)CC1)c1ccc(Cl)cc1 (stereo not drawn) + C=CC(=O)N1CCN(c2nc(OCC3CCCN3C)nc3c(F)c(-c4nc(N)cc(C)c4C(F)(F)F)c(Cl)cc23)C(C)C1", "viability, T/C (%)": 18.8}
{"Molecule": "CC(Nc1ccc2c(c1)OCCn1cc(N3C(=O)OCC3C(F)F)nc1-2)C(N)=O (stereo not drawn) + C#Cc1c(F)ccc2cc(O)cc(-c3ncc4c(N5CC6CCC(C5)N6)nc(OCC56CCCN5CC(F)C6)nc4c3F)c12", "viability, T/C (%)": 71.2}
{"Molecule": "CC1(O)CCCC1n1c(=O)c(C(F)F)cc2cnc(NC3CCN(S(C)(=O)=O)CC3)nc21 (stereo not drawn) + C#Cc1c(F)ccc2cc(O)cc(-c3ncc4c(N5CC6CCC(C5)N6)nc(OCC56CCCN5CC(F)C6)nc4c3F)c12", "viability, T/C (%)": 16.3}

---

- Tested on: NCI-H23 complex spheroids with HUVEC/MSC, viability
- Test Description: Anticancer human tumor NCI-H23 cell line growth inhibition [RAS]; active = viability on the fitted dose curve at most 10% of control; inactive = the rest;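 also: spheroids exposed to compound for 7 days; 100% = DMSO vehicle control viability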
- Cond: second compound 0.1 µM; first compound 1 µM
Classes used: 1 for active, 0 for inactive

{"Compound": "CC(C)NCC(C(=O)N1CCN(c2ncnc3c2C(C)CC3O)CC1)c1ccc(Cl)cc1 (stereo not given) + C=CC(=O)N1CCN(c2nc(OCC3CCCN3C)nc3c(F)c(-c4nc(N)cc(C)c4C(F)(F)F)c(Cl)cc23)C(C)C1", "Class Name": 0}
{"Compound": "CC(=O)OC12COC1CC(O)C1(C)C(=O)C(O)C3=C(C)C(OC(=O)C(O)C(NC(=O)OC(C)(C)C)c4ccccc4)CC(O)(C(OC(=O)c4ccccc4)C21)C3(C)C (stereo not given) + C#Cc1c(F)ccc2cc(O)cc(-c3ncc4c(N5CC6CCC(C5)N6)nc(OCC56CCCN5CC(F)C6)nc4c3F)c12", "Class Name": 0}
{"Compound": "Nc1ccn(C2OC(CO)C(O)C2(F)F)c(=O)n1 (stereo not given) + C=CC(=O)N1CCN(c2nc(OCC3CCCN3C)nc3c(F)c(-c4nc(N)cc(C)c4C(F)(F)F)c(Cl)cc23)C(C)C1", "Class Name": 1}
{"Compound": "CCC(CC)c1cc(NC2CCC(N)C2)n2nccc2n1 (stereo not given) + C=CC(=O)N1CCN(c2nc(OCC3CCCN3C)nc3c(F)c(-c4nc(N)cc(C)c4C(F)(F)F)c(Cl)cc23)C(C)C1", "Class Name": 0}
{"Compound": "O=C(c1ccc(F)c(F)c1Nc1ccc(I)cc1F)N1CC(O)([C@@H]2CCCCN2)C1 + C=CC(=O)N1CCN(c2nc(OCC3CCCN3C)nc3c(F)c(-c4nc(N)cc(C)c4C(F)(F)F)c(Cl)cc23)C(C)C1", "Class Name": 0}

---

- Test system: NCI-H23 complex spheroids with HUVEC/MSC, viability
- Test Description: Anticancer human tumor NCI-H23 cell line growth inhibition [RAS];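 also: spheroids exposed to compound for 7 days; 100% = DMSO vehicle control viability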
- Cond: second compound 0.00949 µM; first compound 0.0949 µM; hits give low values
viability, T/C values for the compounds below.

{"Compound": "CCc1c2c(nc3ccc(O)cc13)-c1cc3c(c(=O)n1C2)COC(=O)[C@]3(O)CC + CCn1c(-c2cccnc2C(C)OC)c2c3cc(ccc31)N1CCOC(CC(NC(=O)C(C(C)C)N(C)C(=O)C3(F)CCN(C(=O)C#CC(C)(C)N(C)C)CC3)C(=O)N3CCCC(N3)C(=O)OCC(C)(C)C2)C1", "viability, T/C [%]": 1.54}
{"Compound": "CCc1c2c(nc3ccc(O)cc13)-c1cc3c(c(=O)n1C2)COC(=O)[C@]3(O)CC + CCn1c(-c2cc(N3CCN(C)CC3)cnc2C(C)OC)c2c3cc(ccc31)-c1csc(n1)CC(NC(=O)C1CC1C)C(=O)N1CCCC(N1)C(=O)OCC(C)(C)C2", "viability, T/C [%]": 1.75}
{"Compound": "CC1(C)CCC(Nc2ncc(C(F)(F)F)c(-c3c[nH]c4c(P(C)(C)=O)c(C#N)ccc34)n2)CN1 (centres undefined) + CCn1c(-c2cccnc2C(C)OC)c2c3cc(ccc31)N1CCOC(CC(NC(=O)C(C(C)C)N(C)C(=O)C3(F)CCN(C(=O)C#CC(C)(C)N(C)C)CC3)C(=O)N3CCCC(N3)C(=O)OCC(C)(C)C2)C1", "viability, T/C [%]": 13.1}
{"Compound": "CC1(C)CCC(Nc2ncc(C(F)(F)F)c(-c3c[nH]c4c(P(C)(C)=O)c(C#N)ccc34)n2)CN1 (centres undefined) + CCn1c(-c2cc(N3CCN(C)CC3)cnc2C(C)OC)c2c3cc(ccc31)-c1csc(n1)CC(NC(=O)C1CC1C)C(=O)N1CCCC(N1)C(=O)OCC(C)(C)C2", "viability, T/C [%]": 12.8}

---

- Tested on: NCI-H23 complex spheroids with HUVEC/MSC, viability
- Test Description: Anticancer human tumor NCI-H23 cell line growth inhibition [RAS];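 also: spheroids exposed to compound for 7 days; 100% = DMSO vehicle control viability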
- Cond: second compound 3.16 µM; first compound 10 µM; hits give low values
Items are presented alongside their recorded viability, T/C.

{"Compound": "C[C@@H](NC(=O)c1ncnc(N)c1Cl)c1ncc(C(=O)Nc2cc(C(F)(F)F)c(Cl)cn2)s1 + C#Cc1c(F)ccc2cc(O)cc(-c3ncc4c(N5CC6CCC(C5)N6)nc(OCC56CCCN5CC(F)C6)nc4c3F)c12", "viability, T/C, %": 52.5}
{"Compound": "CC(=O)OC12COC1CC(O)C1(C)C(=O)C(O)C3=C(C)C(OC(=O)C(O)C(NC(=O)OC(C)(C)C)c4ccccc4)CC(O)(C(OC(=O)c4ccccc4)C21)C3(C)C (configuration not stated) + C#Cc1c(F)ccc2cc(O)cc(-c3ncc4c(N5CC6CCC(C5)N6)nc(OCC56CCCN5CC(F)C6)nc4c3F)c12", "viability, T/C, %": 39}

---

- Tested on: NCI-H23 complex spheroids with HUVEC/MSC, viability
- Test Description: Anticancer human tumor NCI-H23 cell line growth inhibition [RAS]; active = viability on the fitted dose curve at most 10% of control; inactive = the rest;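 also: spheroids exposed to compound for 7 days; 100% = DMSO vehicle control viability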
- Cond: second compound 0.0949 µM; first compound 0.0316 µM
Outcomes: active, inactive

{"Compound": "NC1c2ccccc2OC12CCN(c1cnc3c(N4CCCc5ncccc54)n[nH]c3n1)CC2 (stereo not drawn) + CCn1c(-c2cccnc2C(C)OC)c2c3cc(ccc31)N1CCOC(CC(NC(=O)C(C(C)C)N(C)C(=O)C3(F)CCN(C(=O)C#CC(C)(C)N(C)C)CC3)C(=O)N3CCCC(N3)C(=O)OCC(C)(C)C2)C1", "Class Name": "inactive"}
{"Compound": "CC(C)NCC(C(=O)N1CCN(c2ncnc3c2C(C)CC3O)CC1)c1ccc(Cl)cc1 (stereo not drawn) + CCn1c(-c2cccnc2C(C)OC)c2c3cc(ccc31)N1CCOC(CC(NC(=O)C(C(C)C)N(C)C(=O)C3(F)CCN(C(=O)C#CC(C)(C)N(C)C)CC3)C(=O)N3CCCC(N3)C(=O)OCC(C)(C)C2)C1", "Class Name": "inactive"}
{"Compound": "C=CC(=O)Nc1cc(Nc2nccc(-c3cn(C)c4ccccc34)n2)c(OC)cc1N(C)CCN(C)C + CCn1c(-c2cc(N3CCN(C)CC3)cnc2C(C)OC)c2c3cc(ccc31)-c1csc(n1)CC(NC(=O)C1CC1C)C(=O)N1CCCC(N1)C(=O)OCC(C)(C)C2", "Class Name": "inactive"}
{"Compound": "Nc1ccn(C2OC(CO)C(O)C2(F)F)c(=O)n1 (stereo not drawn) + CCn1c(-c2cc(N3CCN(C)CC3)cnc2C(C)OC)c2c3cc(ccc31)-c1csc(n1)CC(NC(=O)C1CC1C)C(=O)N1CCCC(N1)C(=O)OCC(C)(C)C2", "Class Name": "active"}
{"Compound": "CC(=O)OC12COC1CC(O)C1(C)C(=O)C(O)C3=C(C)C(OC(=O)C(O)C(NC(=O)OC(C)(C)C)c4ccccc4)CC(O)(C(OC(=O)c4ccccc4)C21)C3(C)C (stereo not drawn) + CCn1c(-c2cccnc2C(C)OC)c2c3cc(ccc31)N1CCOC(CC(NC(=O)C(C(C)C)N(C)C(=O)C3(F)CCN(C(=O)C#CC(C)(C)N(C)C)CC3)C(=O)N3CCCC(N3)C(=O)OCC(C)(C)C2)C1", "Class Name": "inactive"}
{"Compound": "O=C(c1ccc(F)c(F)c1Nc1ccc(I)cc1F)N1CC(O)([C@@H]2CCCCN2)C1 + CCn1c(-c2cc(N3CCN(C)CC3)cnc2C(C)OC)c2c3cc(ccc31)-c1csc(n1)CC(NC(=O)C1CC1C)C(=O)N1CCCC(N1)C(=O)OCC(C)(C)C2", "Class Name": "active"}
{"Compound": "O=C(c1ccc(F)c(F)c1Nc1ccc(I)cc1F)N1CC(O)([C@@H]2CCCCN2)C1 + CCn1c(-c2cccnc2C(C)OC)c2c3cc(ccc31)N1CCOC(CC(NC(=O)C(C(C)C)N(C)C(=O)C3(F)CCN(C(=O)C#CC(C)(C)N(C)C)CC3)C(=O)N3CCCC(N3)C(=O)OCC(C)(C)C2)C1", "Class Name": "inactive"}
{"Compound": "CCC(CC)c1cc(NC2CCC(N)C2)n2nccc2n1 (stereo not drawn) + CCn1c(-c2cccnc2C(C)OC)c2c3cc(ccc31)N1CCOC(CC(NC(=O)C(C(C)C)N(C)C(=O)C3(F)CCN(C(=O)C#CC(C)(C)N(C)C)CC3)C(=O)N3CCCC(N3)C(=O)OCC(C)(C)C2)C1", "Class Name": "inactive"}

Cited source for all entries: PubChem BioAssay AID2060885
